# Protocol Text: Preliminary solubility test in solvents at room temperature
# Format: physicochemical
# Reported Conditions: acetone/H2O (1:2 v/v), 25 °C, aqueous with cosolvent or surfactant or cyclodextrin, thermodynamic from solid, Acetone/H2O (1:2) v/v, room temperature
Assay Metric: solubility

QUERY: Any idea what solubility was measured for CC(C)C[C@@H](C(=O)Nc1ccn(C[C@@H](O)COC(=O)c2cccnc2)n1)N1CC(Oc2ccccc2Cl)=CC1=O [Compound A] ?
RESULT: 5300 to 10500 µg/mL

* * *

# Protocol Text: Preliminary solubility test in solvents at room temperature
# Type: physicochemical
# Reported Conditions: thf/h2o (1:1) v/v, room temperature
Structures can show the parent of a compound that is named as a salt.
Assay Metric: solubility

QUERY: Any idea what solubility was measured for CC(C)C[C@@H](C(=O)Nc1ccn(C[C@@H](O)COC(=O)c2cccnc2)n1)N1CC(Oc2ccccc2Cl)=CC1=O [Hydrochloride crystal form B] ?
RESULT: 20 to 40 mg/mL

Sourced from patent EP4682144A1
